Where do the numbers come from? From patent US9526785B2.

- assay-details: Tigecycline plasma PK and % F after PO enteric-coated capsule in dogs
- Type: in vivo, Beagle dogs
- condition-context: female, beagle, dog, plasma, po, 15 mg, Tigecycline Plasma Concentration, 240 min; PO 15 mg unformulated enteric-coated capsule, SC424; individual dogs
- Protocol: Adult beagle dogs weighing approximately 9 to 15 kg were used in the study. […] Room temperature was set to be maintained between approximately 20±5° C. Relative humidity was monitored but not controlled. […] The unknown concentration in dog plasma samples was determined by interpolation of the peak area ratios of analyte:internal standard versus the ratio of their nominal concentrations into the regression line obtained from calibration standards spiked in pooled dog plasma. […]
value-type: concentration at 240 min (ng/mL)
Answers are plain numbers, in ng/mL.

Item under review: `CN(C)c1cc(NC(=O)CNC(C)(C)C)c(O)c2c1C[C@H]1C[C@H]3[C@H](N(C)C)C(O)=C(C(N)=O)C(=O)[C@@]3(O)C(O)=C1C2=O` . Reported concentration at 240 min?
0

====

- assay-details: Tigecycline plasma PK and % F after PO enteric-coated capsule in dogs
- Format: in vivo, Beagle dogs
- condition-context: female, beagle, dog, plasma, po, 30 mg, Tigecycline Plasma Concentration, 4.0 hr; PO 30 mg unformulated enteric-coated capsule, SC430; mean
- Protocol: Adult beagle dogs weighing approximately 9 to 15 kg were used in the study. […] Room temperature was set to be maintained between approximately 20±5° C. Relative humidity was monitored but not controlled. […] The unknown concentration in dog plasma samples was determined by interpolation of the peak area ratios of analyte:internal standard versus the ratio of their nominal concentrations into the regression line obtained from calibration standards spiked in pooled dog plasma. […]
value-type: concentration at 4 hr (ng/mL)
Give bare numbers, in ng/mL.

Fill in: concentration at 4 hr of `CN(C)c1cc(NC(=O)CNC(C)(C)C)c(O)c2c1C[C@H]1C[C@H]3[C@H](N(C)C)C(O)=C(C(N)=O)C(=O)[C@@]3(O)C(O)=C1C2=O` is ___
0

====

- assay-details: Tigecycline plasma PK after IV bolus in dogs
- Format: in vivo, Beagle dogs
- condition-context: female, beagle, dog, plasma, intravenous, 5 mg, Tigecycline Plasma Concentration, 90 min; 5 mg IV in PBS ([…]), SC431; mean
value-type: concentration at 90 min
Quick note: number first, unit second.

Given the entry CN(C)c1cc(NC(=O)CNC(C)(C)C)c(O)c2c1C[C@H]1C[C@H]3[C@H](N(C)C)C(O)=C(C(N)=O)C(=O)[C@@]3(O)C(O)=C1C2=O [Tigecycline] , report its measured concentration at 90 min.
47.4 ng/mL

====

- assay-details: Tigecycline plasma PK after IV bolus in dogs
- Type: in vivo, Beagle dogs
- condition-context: female, beagle, dog, plasma, iv, 0.08 mg/kg, 1 mg IV in PBS (0.08 mg/kg), SC427; individual dogs; read-out: AUC(0-t)
value-type: AUC(0-t)

Item under review: CN(C)c1cc(NC(=O)CNC(C)(C)C)c(O)c2c1C[C@H]1C[C@H]3[C@H](N(C)C)C(O)=C(C(N)=O)C(=O)[C@@]3(O)C(O)=C1C2=O [Tigecycline] . Reported AUC(0-t)?
56.2 ng·h/mL

====

- assay-details: Tigecycline plasma PK and % F after PO enteric-coated capsule in dogs
- Assay type: in vivo, Beagle dogs
- condition-context: female, beagle, dog, plasma, po, 15 mg, Tigecycline Plasma Concentration, 75 min; PO 15 mg unformulated enteric-coated capsule, SC424; individual dogs
value-type: concentration at 75 min (ng/mL)
Answers are plain numbers, in ng/mL.

Using the record for `CN(C)c1cc(NC(=O)CNC(C)(C)C)c(O)c2c1C[C@H]1C[C@H]3[C@H](N(C)C)C(O)=C(C(N)=O)C(=O)[C@@]3(O)C(O)=C1C2=O` , report its concentration at 75 min.
0
